Origin of values: paper PMC11162469

assay: Pharmacokinetic study of RXFP2 mAbs in rat; type: in vivo, Wistar Han rats; settings: male Wistar Han rats, 1 mg/kg s.c., n = 3, mean ± SD
Below is a list of entries, each paired with its recorded Tmax value.
Give just the number in h; leave the unit off.

Inquiry: Which value of Tmax has been reported for 2D4: RXFP2 monoclonal antibody from hybridoma, recombinantly expressed in a rat IgG2b backbone (antibody, V domains shown) VH: QVQLKESGPGLVAPSQSLSITCTVSGFSLTTYGISWVRQPPGKGLEWLGVIWTGGGTNYNSALKSRLSISKDNSKSQVFLKMNSLQTDDTARYYCARTEGYYVMDYWGQGTSVTVSS VL: DIQMTQSPASLSVSVGETVTITCRASENIYSNLVWYQQKQGKSPQLLVYAATNLADGVPSRFSGSGSGTQYSLKINNLQSEDFGTYYCQHFWGPPWTFGGGTKLEIK in the records?
Reply text: 168
